target.under.test: S1P1 (Homo sapiens)
Sequence (P21453 whole entry): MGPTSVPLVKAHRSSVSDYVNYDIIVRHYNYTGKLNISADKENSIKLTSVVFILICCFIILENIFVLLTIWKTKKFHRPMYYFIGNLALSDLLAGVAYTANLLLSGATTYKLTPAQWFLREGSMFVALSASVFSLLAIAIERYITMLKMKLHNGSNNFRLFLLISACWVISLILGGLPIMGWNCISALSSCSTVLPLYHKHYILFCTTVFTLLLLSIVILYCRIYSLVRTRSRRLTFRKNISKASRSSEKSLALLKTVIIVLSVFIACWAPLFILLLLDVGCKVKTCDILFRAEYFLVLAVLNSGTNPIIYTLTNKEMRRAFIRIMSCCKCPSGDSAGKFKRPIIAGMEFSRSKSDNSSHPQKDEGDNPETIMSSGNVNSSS
run.description: Method B: Receptor [35S] GTPγS SPA Binding Assay, membranes from S1P1 transfected CHO cells
Assay type: biochemical
Set-up: expressed in transfected cells; host or cells: S1P1/CHO cells
setup.conditions: Method B SPA; S1P1 transfected CHO cell membranes; NC = a satisfactory dose response curve was not obtained
Where a name gives a salt, the structure may show the parent alone.
value.type: log10(EC50) (log10 of the value in nM)
Transform log10 | Measure EC50 | Unit nM

Previously resolved entries follow.
{"compound": "O=C(O)C1CN(Cc2ccc(-c3noc(-c4noc(-c5ccccc5)c4C4CC4)n3)cc2)C1", "log10(EC50)": -0.66}
{"compound": "CCC(F)(F)c1c(-c2nc(-c3ccc(CN4CC(C(=O)O)C4)cc3)no2)noc1-c1ccccc1 [Example 10, trifluoroacetic acid salt]", "log10(EC50)": -1.26}
{"compound": "CC(C)(C)c1c(-c2nc(-c3ccc(CN4CC(C(=O)O)C4)cc3)no2)noc1-c1ccccc1", "log10(EC50)": 0.18}
{"compound": "CNC(=O)c1c(-c2ccccc2)noc1-c1nc(-c2ccc(CN3CC(C(=O)O)C3)cc2)no1", "log10(EC50)": 0.08}
{"compound": "O=C(O)C1CN(Cc2ccc(-c3noc(-c4onc(-c5ccccc5)c4C(F)F)n3)cc2)C1", "log10(EC50)": -0.82}
{"compound": "CC(C)Cc1c(-c2nc(-c3ccc(CN4CC(C(=O)O)C4)cc3)no2)noc1-c1ccccc1", "log10(EC50)": -0.24}
{"compound": "O=C(O)C1CN(Cc2ccc(-c3noc(-c4cc(-c5ccccc5)c(C(F)(F)F)s4)n3)cc2)C1 [Comp. A, reference compound]", "log10(EC50)": -0.60}
{"compound": "CCCCc1c(-c2nc(-c3ccc(CN4CC(C(=O)O)C4)cc3)no2)noc1-c1ccccc1", "log10(EC50)": -0.80}

Query string: Endpoint output: log10(EC50) of CCCc1onc(-c2nc(-c3ccc(CN4CC(C(=O)O)C4)cc3)no2)c1CC(C)C [Example 19, TFA] . Value?
Result string: -0.14

Query string: Next: "O=C(O)C1CN(Cc2ccc(-c3noc(-c4noc(-c5ccccc5)c4C(F)(F)F)n3)cc2)C1"
Result string: -1.12

Query string: Next: "O=C(O)C1CN(Cc2ccc(-c3noc(-c4onc(-c5ccccc5)c4C(F)(F)F)n3)cc2)C1"
Result string: -1.32

Query string: Next: "CC(F)(F)c1c(-c2nc(-c3ccc(CN4CC(C(=O)O)C4)cc3)no2)noc1-c1ccccc1"
Result string: -0.85

Query string: Next: CCCc1c(-c2nc(-c3ccc(CN4CC(C(=O)O)C4)cc3)no2)noc1CC(C)C [Example 18, TFA]
Result string: -1.82

Query string: Next: "O=C(O)C1CN(Cc2ccc(-c3noc(-c4noc(-c5ccccc5)c4-c4ccccc4)n3)cc2)C1"
Result string: -0.92

Query string: Next: "CCCc1c(-c2ccccc2)noc1-c1nc(-c2ccc(CN3CC(C(=O)O)C3)cc2)no1"
Result string: -1.77
